assayInfo: Cytotoxicity CC50 in Huh-7
Format: cell-based
conditionLabel: human; Huh-7 cells
Each entry below lists one item and its recorded CC50 value.

compound	CC50
CCCCCOC(=O)C(C)NP(=O)(OC[C@@]1(N=[N+]=[N-])O[C@@H](n2ccc(=O)[nH]c2=O)[C@@H](C)[C@@H]1O)Oc1ccccc1 (stereo partly drawn)	> 98.3 µM
CCC(NP(=O)(OC[C@@]1(N=[N+]=[N-])O[C@@H](n2ccc(=O)[nH]c2=O)[C@@H](C)[C@@H]1O)Oc1ccccc1)C(=O)OCc1ccccc1 (stereo partly drawn)	81.8 µM
CC(NP(=O)(OC[C@@]1(N=[N+]=[N-])O[C@@H](n2ccc(=O)[nH]c2=O)[C@@H](C)[C@@H]1O)Oc1ccccc1)C(=O)OC1CCCC1 (stereo partly drawn)	> 98.3 µM
CC(NP(=O)(OC[C@@]1(N=[N+]=[N-])O[C@@H](n2ccc(=O)[nH]c2=O)[C@@H](C)[C@@H]1O)Oc1ccccc1)C(=O)OC1CCCCC1 (stereo partly drawn)	> 98.3 µM
CC(C)OC(=O)C(C)NP(=O)(OC[C@@]1(N=[N+]=[N-])O[C@@H](n2ccc(=O)[nH]c2=O)[C@@H](C)[C@@H]1O)Oc1ccccc1 (stereo partly drawn)	> 100 µM
C[C@@H]1[C@H](n2ccc(=O)[nH]c2=O)O[C@@](COP(=O)(NC(C)(C)C(=O)OCc2ccccc2)Oc2ccccc2)(N=[N+]=[N-])[C@H]1O (stereo partly drawn)	> 100 µM

----------
Tested on: Huh-7
assayInfo: Cytotoxicity CC50 in Huh-7
Format: cell-based
conditionLabel: Huh-7 cells
molecules and their reported CC50
experimentalReadout: CC50

molecule	experimentalReadout	observedValue
COCCOC(=O)C(C)NP(=O)(OCC1(N=[N+]=[N-])OC(n2ccc(=O)[nH]c2=O)C(C)C1O)Oc1ccccc1 (mixture of isomers)	CC50	> 98.3 µM
CCOC(=O)[C@H](C)NP(=O)(OC[C@@]1(N=[N+]=[N-])O[C@@H](n2ccc(=O)[nH]c2=O)[C@@H](C)[C@@H]1O)Oc1ccccc1 (single isomer, unassigned) [Compound I-17]	CC50	> 98.3 µM
CC(NP(=O)(OCC1(N=[N+]=[N-])OC(n2ccc(=O)[nH]c2=O)C(C)C1O)Oc1cccc2ccccc12)C(=O)OCc1ccccc1 (mixture of isomers)	CC50	> 100 µM
CCCC(CCC)COC(=O)C(C)NP(=O)(OCC1(N=[N+]=[N-])OC(n2ccc(=O)[nH]c2=O)C(C)C1O)Oc1ccccc1 (mixture of isomers)	CC50	30.7 µM
CCOC(=O)[C@H](C)NP(=O)(OC[C@@]1(N=[N+]=[N-])O[C@@H](n2ccc(=O)[nH]c2=O)[C@@H](C)[C@@H]1O)Oc1ccccc1 (single isomer, unassigned) [Compound I-8]	CC50	> 98.3 µM

----------
assayInfo: Cytotoxicity CC50 in Huh-7
Assay type: cell-based
conditionLabel: human; Huh-7 cells
experimentalReadout: CC50

compound	experimentalReadout	observedValue
CC(NP(=O)(OC[C@@]1(N=[N+]=[N-])O[C@@H](n2ccc(=O)[nH]c2=O)[C@@H](C)[C@@H]1O)Oc1ccccc1)C(=O)OCc1ccccc1 (stereo partly drawn)	CC50	> 100 µM
CCCCOC(=O)C(C)NP(=O)(OC[C@@]1(N=[N+]=[N-])O[C@@H](n2ccc(=O)[nH]c2=O)[C@@H](C)[C@@H]1O)Oc1ccccc1 (stereo partly drawn)	CC50	> 98.3 µM
CCC(NP(=O)(OC[C@@]1(N=[N+]=[N-])O[C@@H](n2ccc(=O)[nH]c2=O)[C@@H](C)[C@@H]1O)Oc1ccccc1)C(=O)OC (stereo partly drawn)	CC50	> 98.3 µM
